Hello, the source for this data is ChEMBL document CHEMBL3758125, in case you need it.

# target: Cannabinoid receptor 1 (Homo sapiens, UniProt P21554)
# Sequence (P21554 whole entry): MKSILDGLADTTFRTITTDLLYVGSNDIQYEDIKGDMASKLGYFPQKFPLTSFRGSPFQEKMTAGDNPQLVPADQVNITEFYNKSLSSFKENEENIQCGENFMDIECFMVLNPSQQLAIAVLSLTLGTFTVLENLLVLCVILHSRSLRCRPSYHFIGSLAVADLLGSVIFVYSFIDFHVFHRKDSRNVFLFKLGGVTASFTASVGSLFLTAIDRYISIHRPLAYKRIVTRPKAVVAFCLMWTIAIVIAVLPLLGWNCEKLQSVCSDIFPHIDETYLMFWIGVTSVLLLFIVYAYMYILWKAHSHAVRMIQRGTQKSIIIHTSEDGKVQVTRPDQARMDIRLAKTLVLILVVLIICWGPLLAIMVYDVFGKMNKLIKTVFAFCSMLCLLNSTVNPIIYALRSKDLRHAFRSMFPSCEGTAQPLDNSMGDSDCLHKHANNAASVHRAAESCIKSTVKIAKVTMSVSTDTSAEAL
# measurement description: Selectivity index, ratio of EC50 for human CB1R by cAMP assay to EC50 for human CB1R by beta-arrestin recruitment assay
# Type: functional, single protein
readout kind: Ratio EC50
Could you keep your reply to the number by itself?

Observe how each entry below is paired with its result.
[[record]]
structure_smiles = "[N-]=[N+]=NCCc1c(C(=O)NCCc2ccc(N3CCCCC3)cc2)[nH]c2ccc(Cl)cc12"
readout_kind = "Ratio EC50"
measured_value = 14

[[record]]
structure_smiles = "O=C(NCCc1ccc(N2CCCCC2)cc1)c1[nH]c2ccc(Cl)cc2c1CCN=C=S"
readout_kind = "Ratio EC50"
measured_value = 14

[[record]]
structure_smiles = "CCc1c(C(=O)NCCc2ccc(N3CCCCC3)cc2)[nH]c2ccc(N=C=S)cc12"
readout_kind = "Ratio EC50"
measured_value = 14

[[record]]
structure_smiles = "CCc1c(C(=O)NCCc2ccc(N3CCCCC3)cc2)[nH]c2ccc(N=[N+]=[N-])cc12"
readout_kind = "Ratio EC50"
measured_value = 14

[[record]]
structure_smiles = "O=C(Nc1ccc(C(=O)c2ccccc2)cc1)Nc1cccc(-c2cccc(N3CCCC3)n2)c1"
readout_kind = "Ratio EC50"
measured_value = 3

[[record]]
structure_smiles = "[N-]=[N+]=Nc1ccc(NC(=O)Nc2cccc(-c3cccc(N4CCCC4)n3)c2)cc1"
readout_kind = "Ratio EC50"
measured_value = 3


INPUT: Please respond with reported Ratio EC50 (system Cannabinoid receptor 1 (Homo sapiens, UniProt P21554)) for O=C(Nc1ccc(N=C=S)cc1)Nc1cccc(-c2cccc(N3CCCC3)n2)c1 .
OUTPUT: 3
